Where do these numbers come from? They come from patent US9549917B2.

Test system: HCV replicon genotype 1a
PROCEDURE DETAILS: HCV replicon assay, genotype 1a (cell ELISA for NS3/4A)
Type: cell-based
EXPERIMENTAL PARAMETERS: Hepatitis C virus, 96 h, read-out: 1a IC50 (nM)
QUANTITY KIND: log10(IC50) (log10 of the value in nM)
Note: values are log10 of IC50 expressed in nM.

Entry CNC(=O)c1c(-c2ccc(F)cc2)oc2cc(N(C)S(C)(=O)=O)c(-c3cnnc(-n4cc5c(F)cccc5n4)c3)cc12 [Compound 265] : reported log10(IC50) = ?
0.65

Then what about the compound CNC(=O)c1c(-c2ccc(F)cc2)oc2cc(N(C)S(C)(=O)=O)c(-c3cnc(OC)c(-c4cc5cccc(F)c5[nH]4)n3)cc12 [Compound 226] ?
0.53

###

System: HCV replicon genotype 1a
PROCEDURE DETAILS: HCV replicon assay, genotype 1a (cell ELISA for NS3/4A)
Type: cell-based
EXPERIMENTAL PARAMETERS: Hepatitis C virus, 96 h, read-out: 1a IC50 (nM)
QUANTITY KIND: IC50
Don't forget the unit after the number, please.

CNC(=O)c1c(-c2ccc(F)cc2)oc2cc(N(CC(F)F)S(C)(=O)=O)c(-c3cc(-c4nc5ncccc5o4)ccn3)cc12 27 nM
CNC(=O)c1c(-c2ccc(F)cc2)oc2cc(N(C)S(C)(=O)=O)c(-c3cc(-c4cc5c(F)cccc5[nH]4)c(OC)nn3)cc12 4.2 nM
CNC(=O)c1c(-c2ccc(F)cc2)oc2cc(N(C)S(C)(=O)=O)c(-c3nnc(-c4cc5c(F)cccc5[nH]4)o3)cc12 0.4 nM
CNC(=O)c1c(-c2ccc(F)cc2)oc2cc(N(C)S(C)(=O)=O)c(-c3cncc(-c4nc5c(F)cccc5o4)c3)cc12 0.3 nM

# get_value(readout= IC50, system= HCV replicon genotype 1a) for CNC(=O)c1c(-c2ccc(F)cc2)oc2cc(N(C)S(C)(=O)=O)c(-c3cc(-c4cc5ccccc5[nH]4)c(OC)nn3)cc12
8.9 nM

And CNC(=O)c1c(-c2ccc(F)cc2)oc2cc(N(C)S(C)(=O)=O)c(-c3ccc(O)c(-c4cc5c(C#N)nccc5[nH]4)n3)cc12 ?
339 nM

###

Tested on: HCV replicon genotype 1a
PROCEDURE DETAILS: HCV replicon assay, genotype 1a (cell ELISA for NS3/4A)
Format: cell-based
EXPERIMENTAL PARAMETERS: Hepatitis C virus, 96 h, read-out: 1a IC50 (nM)
Classification scheme (IC50): group A (below 4 nM), group B (4 nM to below 20 nM), group C (20 nM or more)

See these solved cases before continuing.
MOLECULE	TARGET	LABEL
CNC(=O)c1c(-c2ccc(F)cc2)oc2cc(N(C)S(C)(=O)=O)c(-c3cncc(-c4cc5ccccc5[nH]4)n3)cc12 [Compound 113]	HCV replicon genotype 1a	group A
CNC(=O)c1c(-c2ccc(F)cc2)oc2cc(N(C)S(C)(=O)=O)c(-c3cc(-c4cc5c(F)cccc5[nH]4)nnc3OC)cc12 [Compound 223]	HCV replicon genotype 1a	group A

Form: Item = CNC(=O)c1c(-c2ccc(F)cc2)oc2cc(N(C)S(C)(=O)=O)c(-c3cnnc(-c4cc5cccnc5n4C)c3)cc12 [Compound 284] ; Class = ?
group B

Please answer likewise for CNC(=O)c1c(-c2ccc(F)cc2)oc2cc(N(C)S(C)(=O)=O)c(-c3cncc(-c4nc5c(s4)C4CCC5C4)c3)cc12 (stereo not shown) [Compound 182]
group B

Entry to check: CNC(=O)c1c(-c2ccc(F)cc2)oc2cc(N(C)S(C)(=O)=O)c(-c3cc(N4Cc5cccc(F)c5C4)ncc3Cl)cc12 [Compound 291]
group B

Now consider CNC(=O)c1c(-c2ccc(F)cc2)oc2cc(N(C)S(C)(=O)=O)c(-c3cnnc(-c4cc5ncccc5[nH]4)c3)cc12 [Compound 286] .
group B

Try the molecule CNC(=O)c1c(-c2ccc(F)cc2)oc2cc(N(C)S(C)(=O)=O)c(-c3cnnc(-n4ncc5c(F)cccc54)c3)cc12 [Compound 264]
group C

###

Test system: HCV replicon genotype 1a
PROCEDURE DETAILS: HCV replicon assay, genotype 1a (cell ELISA for NS3/4A)
Format: cell-based
EXPERIMENTAL PARAMETERS: Hepatitis C virus, 96 h, read-out: 1a IC50 (nM)
Entries and their IC50 values follow.
Report the value in nM with no unit label.

Consider the worked cases shown below.
COMPOUND	IC50 / nM
CNC(=O)c1c(-c2ccc(F)cc2)oc2cc(N(C)S(C)(=O)=O)c(-c3cnnc(N4Cc5cccc(F)c5C4)c3)cc12	1.2
CNC(=O)c1c(-c2ccc(F)cc2)oc2cc(N(C)S(C)(=O)=O)c(-c3cnnc(-c4cc5c(F)cccc5[nH]4)c3)cc12	1.1
CNC(=O)c1c(-c2ccc(F)cc2)oc2cc(N(C)S(C)(=O)=O)c(-c3cncc(-c4cc5c(F)cccc5[nH]4)n3)cc12	0.8
CNC(=O)c1c(-c2ccc(F)cc2)oc2cc(N3CCCC3=O)c(-c3cncc(-c4nc5c(s4)CCCC5(F)F)c3)cc12	2.9
CNC(=O)c1c(-c2ccc(F)cc2)oc2cc(N(C)S(C)(=O)=O)c(-c3ccc(O)c(C4Cc5c(F)cccc5N4)n3)cc12 (centres unmarked)	13
CNC(=O)c1c(-c2ccc(F)cc2)oc2cc(N(C)S(C)(=O)=O)c(-c3cnnc(-c4cc5c(OC)cccc5[nH]4)c3)cc12	3.3
CNC(=O)c1c(-c2ccc(F)cc2)oc2cc(N(C)S(C)(=O)=O)c(-c3cc(-c4cc5ccccc5[nH]4)nc(OC)n3)cc12	3.2

Kindly review the next compound as well.
Observed IC50 on HCV replicon genotype 1a for CNC(=O)c1c(-c2ccc(F)cc2)oc2cc(N(C)S(C)(=O)=O)c(-c3cc(-c4cc5c(F)cccc5[nH]4)nc(N)n3)cc12 , please.
4.2

###

System: HCV replicon genotype 1a
PROCEDURE DETAILS: HCV replicon assay, genotype 1a (cell ELISA for NS3/4A)
Type: cell-based
EXPERIMENTAL PARAMETERS: Hepatitis C virus, 96 h, read-out: 1a IC50 (nM)
Method: Measurement of inhibition by compounds was performed using the HCV replicon system. Several different replicons encoding different HCV genotypes or mutations were used. […] Stable neomycin phosphotransferase encoding replicons-harboring cell lines were used, so all cell lines were maintained under G418 selection prior to the assay. Potency was determined using a cell ELISA assay with an antibody to the replicons encoded NS3/4a protease. […]
Field 'label' (enum: yes (1) / no (0)). Set to yes (1) when IC50 is strictly under 3 nM; else no (0).

# count of solved cases: 3
COMPOUND	LABEL
CNC(=O)c1c(-c2ccc(F)cc2)oc2cc(N(C)S(C)(=O)=O)c(-c3cc(-c4nc5c(F)cccc5o4)c(F)cn3)cc12 [Compound 13]	yes (1)
CNC(=O)c1c(-c2ccc(F)cc2)oc2cc(N(C)S(C)(=O)=O)c(-c3cc(-c4cc5c(C#N)cccc5[nH]4)cnn3)cc12 [Compound 230]	yes (1)
CNC(=O)c1c(-c2ccc(F)cc2)oc2cc(N(C)S(C)(=O)=O)c(-c3cc(-c4cc5ccccc5[nH]4)nc(C#N)n3)cc12 [Compound 151]	no (0)

In plain terms, does CNC(=O)c1c(-c2ccc(F)cc2)oc2cc(N(C)S(C)(=O)=O)c(-c3cc(-c4cc5c(F)cccc5[nH]4)ncc3Cl)cc12 [Compound 292] come in under 3 nM for IC50?
no (0)

Field entry: CNC(=O)c1c(-c2ccc(F)cc2)oc2cc(N(C)S(C)(=O)=O)c(-c3cc(-c4cc5c(F)cccc5[nH]4)ncn3)cc12 [Compound 119]
yes (1)

###

Let's look at some compounds and their measured IC50.
Tested on: HCV replicon genotype 1a
PROCEDURE DETAILS: HCV replicon assay, genotype 1a (cell ELISA for NS3/4A)
Type: cell-based
EXPERIMENTAL PARAMETERS: Hepatitis C virus, 96 h, read-out: 1a IC50 (nM)
Method: Measurement of inhibition by compounds was performed using the HCV replicon system. Several different replicons encoding different HCV genotypes or mutations were used. […] Stable neomycin phosphotransferase encoding replicons-harboring cell lines were used, so all cell lines were maintained under G418 selection prior to the assay. Potency was determined using a cell ELISA assay with an antibody to the replicons encoded NS3/4a protease. […]
Include the unit right after the number.

CNC(=O)c1c(-c2ccc(F)cc2)oc2cc(N(C)S(C)(=O)=O)c(-c3cc(-c4[nH]c5ccccc5c4C)cnn3)cc12 54 nM
CNC(=O)c1c(-c2ccc(F)cc2)oc2cc(N(C)S(C)(=O)=O)c(-c3cc(-c4nc5c(o4)CCCC5(F)F)ccn3)cc12 0.9 nM
CNC(=O)c1c(-c2ccc(F)cc2)oc2cc(N(C)S(C)(=O)=O)c(-c3cncc(-c4cc5ccncc5s4)c3)cc12 8.2 nM

Under HCV replicon genotype 1a: IC50 value of CNC(=O)c1c(-c2ccc(F)cc2)oc2cc(N(C)S(C)(=O)=O)c(-c3ccnc(-c4cc5ccccc5[nH]4)c3)cc12 ?
0.4 nM

What would you report for CNC(=O)c1c(-c2ccc(F)cc2)oc2cc(N(C)S(C)(=O)=O)c(-c3ncc(OC)c(-c4cc5c(C#N)cccc5[nH]4)n3)cc12 ?
33 nM

Next compound: CNC(=O)c1c(-c2ccc(F)cc2)oc2cc(N(C)S(C)(=O)=O)c(-c3cc(-c4nc5ccccc5o4)cnn3)cc12
14 nM
